Reference source: ChEMBL document CHEMBL4052662

Give Activity for every item shown.
system: PC-12; assay: Neuroprotective activity against H2O2-induced cell death in rat PC12 cells assessed as cell viability 10 uM pretreated for three hours followed by H2O2 induction after 12 hrs by MTT assay relative to control; format: functional
Answers are plain numbers, in %.

See these solved cases before continuing.
COc1ccc(C2C(C#N)=C(NC(=O)CN3CCOCC3)Oc3c2c(=O)oc2ccccc32)cc1 (stereo not given); 78.5
N#CC1=C(NC(=O)CN2CCN(c3ccccc3)CC2)Oc2c(c(=O)oc3ccccc23)C1c1ccc(Cl)cc1 (stereo not given); 75
COc1ccc(C2C(C#N)=C(NC(=O)CN3CCN(c4ccccc4)CC3)Oc3c2c(=O)oc2ccccc32)cc1 (stereo not given); 84.7
COc1ccc(C2C(C#N)=C(NC(=O)CN3CCN(c4ccccc4)CC3)Oc3c2c(=O)oc2ccccc32)cc1OC (stereo not given); 76

Kindly review the next compound as well.
Specify reported Activity for the compound shown: COc1ccc(C2C(C#N)=C(NC(=O)CN3CCOCC3)Oc3c2c(=O)oc2ccccc32)cc1OC (stereo not given)
84.7
